A collection of compounds and their measured EC50
# Test system: HCMV engineered virus RC256
# experimentalDetails: microbe, parasite or virus in culture
# Assay type: cell-based, human cytomegalovirus
# conditionSet: Human betaherpesvirus 5, Fibroblast, read-out: Antiviral Activity RC256, first value (EC50)
assayReadout: EC50 (µM)

# compound, unitSpec, resultQualifier, dataValue
data = [
    ("Cc1c(NC(=O)OC(C)(C)C)ccc2nc(N[C@@H](Cc3ccc(I)cc3)C(=O)N(C)C)oc(=O)c12", "µM", "=", 40),
    ("CCN(Cc1ccccc1)C(=O)[C@H](Cc1ccccc1)Nc1nc2c(Br)cc(CNC(=O)CN3CCOCC3)c(C)c2c(=O)o1 [Example 15g]", "µM", "=", 16),
    ("Cc1c(CNC(=O)OCCN2CCOCC2)ccc2nc(N[C@@H](Cc3ccccc3)C(=O)N(C)Cc3ccccc3)oc(=O)c12 [Example 18h]", "µM", "=", 11),
    ("Cc1c(NCc2ccccc2)ccc2nc(N[C@@H](Cc3ccccc3)C(=O)N(C)Cc3ccccc3)oc(=O)c12 [Example 17d]", "µM", "=", 15),
    ("COc1ccc(C[C@H](Nc2nc3ccc(CNC(=O)OCC(C)C)c(C)c3c(=O)o2)C(=O)N(C)Cc2ccccc2)cc1", "µM", "=", 14),
    ("Cc1c(CNC(=O)OC(C)(C)C)ccc2nc(N[C@@H](Cc3ccccc3)C(=O)N(C)CCc3ccccc3)oc(=O)c12", "µM", "=", 14),
    ("CCN(Cc1ccccc1)C(=O)[C@H](Cc1ccc(OC)cc1)Nc1nc2ccc(CNC(=O)OC(C)(C)C)c(C)c2c(=O)o1", "µM", "=", 24),
    ("COc1ccc(C[C@H](Nc2nc3ccc(CNC(=O)Cc4ccc(N(C)C)cc4)c(C)c3c(=O)o2)C(=O)N(C)Cc2ccccc2)cc1", "µM", "=", 14),
    ("CCN(C(=O)[C@H](Cc1ccc(OC)cc1)Nc1nc2ccc(N(C)C)c(C)c2c(=O)o1)c1ccccc1 [Example 16b]", "µM", "=", 20),
    ("COc1ccc(C[C@H](Nc2nc3ccc(CNC(=O)CN4CCOCC4)c(C)c3c(=O)o2)C(=O)N(C)Cc2ccccc2)cc1", "µM", "=", 75),
    ("Cc1c(NC(=O)OC(C)(C)C)ccc2nc(N[C@@H](Cc3ccc(OCCN4CCCC4)cc3)C(=O)N(C)Cc3ccccc3)oc(=O)c12", "µM", "=", 50),
    ("Cc1c(CNC(=O)C=Cc2ccccc2)ccc2nc(N[C@@H](Cc3ccccc3)C(=O)N(C)Cc3ccccc3)oc(=O)c12", "µM", "=", 26),
    ("COc1ccc(C[C@H](Nc2nc3ccc(CNC(=O)CCc4ccccc4)c(C)c3c(=O)o2)C(=O)N(C)Cc2ccccc2)cc1", "µM", "=", 18),
    ("COc1ccc(C[C@H](Nc2nc3ccc(CNC(=O)CN4CCCC4)c(C)c3c(=O)o2)C(=O)N(C)Cc2ccccc2)cc1", "µM", "=", 9),
    ("COC(=O)[C@@H](C)Nc1nc2cccc(C)c2c(=O)o1", "µM", ">", 100),
    ("Cc1c(CNC(=O)CN2CCOCC2)cc(Br)c2nc(N[C@@H](Cc3ccccc3)C(=O)N(C)Cc3ccccc3)oc(=O)c12 [Example 15e]", "µM", "=", 16),
    ("COc1ccc(C[C@H](Nc2nc3ccc(N)c(C)c3c(=O)o2)C(=O)N(C)Cc2ccccc2)cc1", "µM", "=", 100),
    ("COc1ccc(C[C@H](Nc2nc3ccc(CNC(=O)OCc4ccccc4)c(C)c3c(=O)o2)C(=O)N(C)Cc2ccccc2)cc1", "µM", "=", 14),
    ("Cc1c(NC(=O)c2ccco2)ccc2nc(N[C@@H](C)c3ccccc3)oc(=O)c12 [Example 11k]", "µM", "=", 65),
    ("CCN(C(=O)[C@H](Cc1ccccc1)Nc1nc2ccc(CNC(=O)OC(C)(C)C)c(C)c2c(=O)o1)c1ccccc1", "µM", "=", 16),
    ("COC(=O)[C@H](Cc1ccccc1)Nc1nc2cccc(C)c2c(=O)o1", "µM", ">", 100),
    ("COC(=O)C1(Nc2nc3ccc(NC(=O)OC(C)(C)C)c(C)c3c(=O)o2)CC1", "µM", ">", 100),
    ("Cc1c(CNC(=O)OCc2ccccc2)ccc2nc(N[C@@H](Cc3ccccc3)C(=O)N(C)Cc3cccnc3)oc(=O)c12", "µM", "=", 10),
    ("COc1ccc(C[C@H](Nc2nc3ccc(CNC(=O)NC(C)(C)C)c(C)c3c(=O)o2)C(=O)N(C)Cc2ccccc2)cc1 [Example 12d]", "µM", "=", 14),
    ("COc1ccc(C[C@H](Nc2nc3ccc(CNC(=O)OCCN(C)C)c(C)c3c(=O)o2)C(=O)N(C)Cc2ccccc2)cc1 [Example 18c]", "µM", "=", 15),
    ("Cc1c(CNC(=O)Nc2ccccc2)ccc2nc(N[C@@H](Cc3ccccc3)C(=O)N(C)Cc3ccccc3)oc(=O)c12 [Example 12f]", "µM", "=", 14),
    ("Cc1c(CNC(=O)OCc2ccccc2)ccc2nc(N[C@@H](Cc3ccccc3)C(=O)N(C)Cc3ccccc3)oc(=O)c12", "µM", "=", 14),
    ("COC(=O)[C@H](Cc1ccccc1)Nc1nc2ccc(NC(=O)OC(C)(C)C)c(C)c2c(=O)o1", "µM", "=", 71),
]
